Assay: A CellTox Green Cytotoxicity Assay to monitor cytotoxicity in HEK293 cells - 24 hour (AID 1224875); also: nearly all actives have a fitted effect of over 45% in size
Conditions: CellTox Green fluorescence; series mostly up to 76.8 µM
Excerpt: National Center for Advancing Translational Sciences [NCATS] NIH Chemical Genomics Center [NCGC] U.S. Environmental Protection Agency [EPA] National Institutes of Environmental Health Sciences [NIEHS] National Toxicology Program [NTP] Cell-based models are critical for drug discovery. […] Viable cells produce no appreciable increases in fluorescence. Therefore, the fluorescence signal produced by the binding interaction with dead cell DNA is proportional to cytotoxicity. […]
Inconclusive results are not listed. Calls of active or inactive are those of the source. Calls follow the shape of the dose curve; as a rule, active = well fitted activation curve with a large enough effect in the repeat runs; inconclusive = weak or mixed curves; inactive = flat fitted curve, though single readings scatter.
API: response.call in t for active, f for inactive

Use these answered entries as a reference point.
{"molecule": "CC1C2CC(CC2C2CCCC(O)C2)C1(C)C (stereo unspecified)", "cat": "t"}
{"molecule": "O=C(CS)OCCOC(=O)CS", "cat": "f"}
{"molecule": "O=C(O)c1ccc(CO)o1", "cat": "f"}
{"molecule": "OC(CCCN1CCCCC1)(c1ccccc1)c1ccccc1", "cat": "f"}

Here is another molecule to look at.
Hi, do you know how `Cc1cc(S(=O)(=O)O)ccc1N=Nc1c(O)ccc2ccccc12` came out in this test?
f
